Listed compounds paired with reported GI50
test system: OVCAR-5 ovarian; test: NCI tumour cell line growth inhibition, 48 h

Solved cases below.
O=C(NC1CCN(Cc2ccccc2)CC1)c1cc(-c2ccncc2)nc2ccc(Cl)cc12: 13.9 µM
COc1cc(NS(C)(=O)=O)ccc1Nc1c2ccc([N+](=O)[O-])cc2nc2c(C)cccc12: 2.87 µM
CC(=O)N[C@@H](Cc1ccc(OP(=O)(O)O)cc1)C(=O)N[C@H]1CCC(=O)N2CCC[C@@H](C(=O)NCc3ccc(Cl)cc3)N2C1=O: > 25 µM

Supply GI50 value. Item: CCOC(=O)c1c2c(c(O)c3ccccc3c(O)n(Cc3ccc(OC)cc3)c1C)C(=O)C=CC2=O
> 100 µM

Supply GI50 value. Item: OC(c1cccc(-n2ccc(C(F)(F)F)n2)c1)c1cnccc1NC1CCCCCC1 (stereo not given)
1.64 µM

Supply GI50 value. Item: FC(F)(F)c1nc(N2CCCC2)ncc1-c1nnnn1-c1ccc(Cl)cc1
> 100 µM

Supply GI50 value. Item: N#Cc1c(-c2ccccc2)nc(SCC2CO2)nc1N1CCOCC1 (stereo not given)
5.05 µM

Supply GI50 value. Item: CCN(CC)CCOCC[C@H]1CC[C@H]2[C@@H]3[C@H](C)Cc4cc(OS(N)(=O)=O)ccc4[C@H]3CC[C@]12C
2.52 µM

Supply GI50 value. Item: COc1cc2c3c(n(CCCN)c(=O)c2cc1OC)-c1ccccc1C3=O
14.3 µM

Supply GI50 value. Item: Cn1cc(-c2ccc3c(Nc4cccc(NC(=O)Nc5cccc(F)c5)c4)ncnc3c2)cn1
10.3 µM

Supply GI50 value. Item: COc1ccc2[nH]c(=O)c3c4ccccc4cn3c2c1
0.659 µM

Supply GI50 value. Item: Cc1ccc([N+](=O)[O-])cc1NC(=O)Nc1cccc(F)c1
9.82 µM

Supply GI50 value. Item: NCCNc1c2c(c(NCCN)c3c(CO)c[nH]c13)C(=O)c1ccccc1C2=O
48.7 µM

Supply GI50 value. Item: O=C1c2ccccc2-c2c1c1ccccc1c(=O)n2CCCCNCCCn1c2c(c3ccccc3c1=O)C(=O)c1ccccc1-2
0.676 µM

Supply GI50 value. Item: Cc1cccc(NC(=O)CCc2ccc(N3C(N)=NC(N)=NC3(C)C)cc2)c1
> 37.2 µM

---

Listed molecules paired with reported TGI
test system: M19-MEL melanoma; test: NCI tumour cell line growth inhibition, 48 h

Solved cases below.
CN1C(=O)CC(c2cccc(C3CC(=O)N(C)C3=O)n2)C1=O (stereo not given): > 100 µM
ON/N=C/c1cc2c(cc1Br)OCO2: > 386 µM
O=C(Nc1ccccc1-c1n[nH]c(=S)[nH]c1=O)C(F)(F)F: > 100 µM
Nc1ncnc2c1ncn2C1OC(COP(=O)(O)O)C(O)C1O (stereo not given): > 50 µM

# input for lookup
Recall the reported TGI of CC[C@]1(O)C[C@H]2CN(CCc3c([nH]c4ccccc34)[C@@](C(=O)OC)(c3cc4c(cc3OC)N(C=O)[C@H]3[C@@](O)(C(=O)OC)[C@H](OC(C)=O)[C@]5(CC)C=CCN6CC[C@]43[C@@H]65)C2)C1 when tested on M19-MEL melanoma.
169 µM

---

Listed molecules paired with reported TGI
system: TK-10 renal; test: NCI tumour cell line growth inhibition, 48 h
Counter-ions that a name gives are not always drawn. Where a SMILES comes first, the peptide text is derived from it. The star is where a group is joined. Tfa = O=C(C(F)(F)F)*

Solved cases below.
CCNC(=O)[C@@H]1CCCN2C(=O)CC[C@H](NC(=O)[C@H](Cc3ccc(OP(=O)(O)O)cc3)NC(C)=O)C(=O)N12: > 25 µM
COc1c(C=O)c2c(c(OC)c1OC)-c1ccc(OC)c(=O)cc1[C@@H](NC(C)=O)CC2: > 100 µM
CC(=O)ON(C(C)=O)c1ccc(-c2nc3ccccc3s2)cc1: > 100 µM
O=C(O)c1cc2ccccc2c(N=Nc2ccccc2)c1O: > 100 µM
O=C(/C=C/c1ccc(OCCCOc2ccc(/C=C/C(=O)c3ccccc3)cc2)cc1)c1ccccc1: > 100 µM
Cc1cccc(NC(=O)CCc2ccc(N3C(N)=NC(N)=NC3(C)C)cc2)c1: > 100 µM
O=C1[C@@H]2C(c3ccccc3Br)=NO[C@@H]2C(=O)N1c1ccc(Cc2ccc(N3C(=O)[C@H]4C(c5ccccc5Br)=NO[C@H]4C3=O)cc2)cc1: > 100 µM
CC(C)(C)OC(=O)NCCCCC(N)C(N)=O (stereo not given): > 100 µM

Supply TGI value. Item: Cc1ccc(S(=O)(=O)N[C@H](C(=O)O)c2ccccc2)cc1
> 100 µM

Supply TGI value. Item: COc1cc(C2SCC(=O)N2c2cc(Cl)c(Cl)cc2Cl)cc(OC)c1OC (stereo not given)
> 100 µM

Supply TGI value. Item: O=C(O)CC(NC(=O)C(F)(F)F)C(=O)NC(Cc1ccc(O)cc1)C(=O)O (stereo not drawn) (Tfa-Asp-Tyr-OH; configuration not given here)
> 50 µM

Supply TGI value. Item: COc1cccc(C2c3cc4c(cc3OC(C)(N3CCCC3)C2C)OCO4)c1OC (stereo not given)
89.1 µM

Supply TGI value. Item: C[N+](C)(C)CC1CCCC/C1=N\OC(=O)c1ccccc1 (stereo not given)
> 100 µM

Supply TGI value. Item: NC(=O)c1nnc2ccc(F)cc2c1N
> 100 µM

Supply TGI value. Item: CC[C@]1(O)CC(OC2CC(N(C)C)C(O)C(C)O2)c2c(cc3c(c2O)C(=O)c2c(O)cccc2C3=O)[C@@H]1C(=O)OC (stereo not given in full)
5.07 µM

Supply TGI value. Item: NNC(=O)CSc1nc2ccc(I)cc2c(=O)n1Cc1ccccc1
38.7 µM

Supply TGI value. Item: COc1ccc(C(=O)c2cc(OC)c(OC)c(OC)c2)cc1
> 100 µM

Supply TGI value. Item: C=CC[n+]1c(/C=C/C=C2\N(C)c3ccccc3C2(C)C)sc2ccc(OC)cc21
14.8 µM

Supply TGI value. Item: Nc1cc2c3c(c1)Oc1cc(N)cc4c1C3c1c(cc(N)cc1O4)O2
> 100 µM

Supply TGI value. Item: CO/N=C(\C)c1ccc(Nc2c3ccccc3nc3occc23)cc1
18.4 µM
